# Experimental Target: T1, TNF-R1 (a protein having the amino acid sequence, Accession No. M58286 registered at GENBANK) (UniProt P19438 30-211, limits assumed)
# T1 construct: also called TNF receptor having a molecular weight of 55 kilo daltons
# T1 sequence (looked up): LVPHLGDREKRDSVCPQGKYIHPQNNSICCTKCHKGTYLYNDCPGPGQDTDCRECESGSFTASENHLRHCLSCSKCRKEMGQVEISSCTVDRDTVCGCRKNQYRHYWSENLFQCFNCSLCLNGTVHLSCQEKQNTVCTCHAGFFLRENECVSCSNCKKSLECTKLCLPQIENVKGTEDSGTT
# Test Description: SPR (BIACORE 2000), receptor on sensor tip; grade 4 = two times or more that of recombinant TNF-α
Readout Name: binding affinity relative to recombinant TNF-α

1. TNF mutant protein of clone No. 35 (ligand, Mutant of lysine-replaced TNF, made in E. coli; also called TNF antagonist of clone No. 35) VRSSSRTPSDMPVAHVVANPQAEGQLQWLNRRANALLANGVELRDNQLVVPSEGLYLIYSQVLFSGQGCPSTHVLLTHTISRITPAINRPVNLLSAIRSPCQRETPEGAEANPWYEPIYLGGVFQLEPGDRLSAEINRPDYLDFAESGQVYFGIIAL ... ≥ 2 fold
